test: Example 1 single dose study: pharmacokinetics; type: in vivo, human; conditions: both sexes, human, plasma, po, 50 mg, single oral dose 50 mg, healthy volunteers, preliminary mean; read-out: T½ (converted)
Metric Name: half-life
Param answer (str): number followed by unit.

Incoming: May I ask what half-life has been recorded for O=C(Nc1nc(-c2cc(Cl)cs2)c(N2CCN(C3CCCCC3)CC2)s1)c1cnc(N2CCC(C(=O)O)CC2)c(Cl)c1 ?
Outgoing: 888 min

###

Assay: Example 1 single dose study: pharmacokinetics
Format: in vivo, human
Settings: both sexes, human, plasma, po, 3 mg, single oral dose 3 mg, healthy volunteers, preliminary mean; read-out: Cmax
Method: A single-center, randomized, double-blind, dose-rising study to determine the safety, pharmacokinetics, and pharmacodynamics of single doses of 1-(3-chloro-5-{[4-(4-chlorothiophen-2-yl)-5-(4-cyclohexylpiperazin-1-yl)thiazol-2-yl]carbamoyl} pyridin-2-yl)piperadine-4-carboxylic acid (Formula I) in normal healthy volunteers was performed. The starting dose of the drug of Formula I was 1 mg (expressed as free base). Successive dose cohorts received 3, 10, 20, 50, 75 and 100 mg. […]
Metric Name: Cmax (ng/mL)
Express the result in ng/mL but write the number alone.

Incoming: May I ask what Cmax has been recorded for O=C(Nc1nc(-c2cc(Cl)cs2)c(N2CCN(C3CCCCC3)CC2)s1)c1cnc(N2CCC(C(=O)O)CC2)c(Cl)c1 ?
Outgoing: 16
